B1: glmS ribozyme (parent)
chain: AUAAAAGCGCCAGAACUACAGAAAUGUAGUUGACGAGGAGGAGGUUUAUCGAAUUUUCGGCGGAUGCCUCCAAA

- Variants of: B1
- assay details: self-cleavage kobs at 160 uM GlcN6P; higher = faster cleavage; RNA array
- particulars: with glucosamine-6-phosphate
This sample holds only a part of the variants without activity.
measurement label: self-cleavage kobs at 160 uM GlcN6P

> print(dat)
                     variant.spec                    measurement.label    meas.value
 1                      G13C U69G  self-cleavage kobs at 160 uM GlcN6P  4.33e-05 s⁻¹
 2            A39U G51U G62U C71A  self-cleavage kobs at 160 uM GlcN6P   < 1e-05 s⁻¹
 3                      C11G U57G  self-cleavage kobs at 160 uM GlcN6P   < 1e-05 s⁻¹
 4                      C16U C58U  self-cleavage kobs at 160 uM GlcN6P   < 1e-05 s⁻¹
 5            G32A G44C G66A C68A  self-cleavage kobs at 160 uM GlcN6P   < 1e-05 s⁻¹
 6  C10U A15C G43U C50U U57G G59A  self-cleavage kobs at 160 uM GlcN6P   < 1e-05 s⁻¹
 7       G13U U31A C34A A48C G62U  self-cleavage kobs at 160 uM GlcN6P   < 1e-05 s⁻¹
 8                      U46C C70U  self-cleavage kobs at 160 uM GlcN6P   0.00026 s⁻¹
 9                      U46G G51U  self-cleavage kobs at 160 uM GlcN6P   < 1e-05 s⁻¹
10                      C34U A52G  self-cleavage kobs at 160 uM GlcN6P   < 1e-05 s⁻¹
11                 C11G G35A C58G  self-cleavage kobs at 160 uM GlcN6P   < 1e-05 s⁻¹
12                      U55A C68A  self-cleavage kobs at 160 uM GlcN6P  6.93e-05 s⁻¹
13                      A39U A52G  self-cleavage kobs at 160 uM GlcN6P   5.2e-05 s⁻¹
14                      A48U G60A  self-cleavage kobs at 160 uM GlcN6P   < 1e-05 s⁻¹
15                      C34A G38A  self-cleavage kobs at 160 uM GlcN6P   < 1e-05 s⁻¹
16                      C34G U45A  self-cleavage kobs at 160 uM GlcN6P   < 1e-05 s⁻¹
17                      G60U C67A  self-cleavage kobs at 160 uM GlcN6P   < 1e-05 s⁻¹
18                       G7A C50G  self-cleavage kobs at 160 uM GlcN6P  6.67e-05 s⁻¹
19                      C10U U30C  self-cleavage kobs at 160 uM GlcN6P   < 1e-05 s⁻¹
20                      A14G G29C  self-cleavage kobs at 160 uM GlcN6P  6.33e-05 s⁻¹
21                           C67A  self-cleavage kobs at 160 uM GlcN6P   0.00132 s⁻¹
22                      U30A U55C  self-cleavage kobs at 160 uM GlcN6P  0.000315 s⁻¹
23                  A6U A12C A53U  self-cleavage kobs at 160 uM GlcN6P   < 1e-05 s⁻¹
24                      A14C G40C  self-cleavage kobs at 160 uM GlcN6P  2.58e-05 s⁻¹
25            A15C A33U A36C A48C  self-cleavage kobs at 160 uM GlcN6P   < 1e-05 s⁻¹
26                  A6C G29C A36G  self-cleavage kobs at 160 uM GlcN6P   < 1e-05 s⁻¹
27                 A15G G40U C70A  self-cleavage kobs at 160 uM GlcN6P  4.48e-05 s⁻¹
28                 G40C A48U C61U  self-cleavage kobs at 160 uM GlcN6P   < 1e-05 s⁻¹
29                      U30C G44A  self-cleavage kobs at 160 uM GlcN6P   < 1e-05 s⁻¹
30                 A14C U47G C70A  self-cleavage kobs at 160 uM GlcN6P  6.05e-05 s⁻¹
31                      C11U U54A  self-cleavage kobs at 160 uM GlcN6P  0.000164 s⁻¹
32                      G44U G62A  self-cleavage kobs at 160 uM GlcN6P   < 1e-05 s⁻¹
33                       G7U G32U  self-cleavage kobs at 160 uM GlcN6P   < 1e-05 s⁻¹
34                      A36G G60C  self-cleavage kobs at 160 uM GlcN6P   < 1e-05 s⁻¹
35                      U55A U69G  self-cleavage kobs at 160 uM GlcN6P  8.26e-05 s⁻¹
36                      C10G G59A  self-cleavage kobs at 160 uM GlcN6P   < 1e-05 s⁻¹
37                      A39C U55A  self-cleavage kobs at 160 uM GlcN6P  0.000429 s⁻¹
38                      C10U C11U  self-cleavage kobs at 160 uM GlcN6P   < 1e-05 s⁻¹
39                      A33U C58U  self-cleavage kobs at 160 uM GlcN6P   < 1e-05 s⁻¹
40                 G41A A53U U54G  self-cleavage kobs at 160 uM GlcN6P  0.000102 s⁻¹
41                 C11G G29U U69G  self-cleavage kobs at 160 uM GlcN6P  0.000155 s⁻¹
42                       C8G A36C  self-cleavage kobs at 160 uM GlcN6P   < 1e-05 s⁻¹
43                      C16A A48U  self-cleavage kobs at 160 uM GlcN6P   < 1e-05 s⁻¹
44                      U45G A52U  self-cleavage kobs at 160 uM GlcN6P   < 1e-05 s⁻¹
45                       C8G A36G  self-cleavage kobs at 160 uM GlcN6P   < 1e-05 s⁻¹
46                      A12U G32U  self-cleavage kobs at 160 uM GlcN6P  2.63e-05 s⁻¹
